Assign Flow-through conc to each entry below.
Molecular target: T1, BMP-12 (UniProt Q7Z4P5 322-450, limits assumed)
T1 construct: also called BMP12/GDF7
T1 sequence (looked up): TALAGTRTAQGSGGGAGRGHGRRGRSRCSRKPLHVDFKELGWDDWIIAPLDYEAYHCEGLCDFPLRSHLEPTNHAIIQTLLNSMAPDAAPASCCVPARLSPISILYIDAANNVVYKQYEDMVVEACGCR
Test: peptide resin, filter plate; load 6: 1M CHES pH 9.7
No end group written: not given here.
Number in mg/mL, nothing else.

[ask] Please indicate Flow-through conc recorded for Ac-LYVDFSDVGWNDWIVAPPGYHAFYSHGEK [BMP2 Full peptide 747]
[reply] 0.659

[ask] Supply recorded Flow-through conc for Ac-LYVSDVGWNDWIVK (not fully specified (residue 3); printed as Ac-LYV**SDVGWNDWIVK; also: ** after V3 not explained) [BMP2 C-trunc_2 peptide 746] here.
[reply] 0.71

[ask] Give me measured Flow-through conc, please, for this binder: Ac-VAPPGYHAFYSHGEK [BMP2 N-trunc_2 peptide 745]
[reply] 0.626
